Entry source: ChEMBL document CHEMBL4739717

Assayed System: Dual specificity tyrosine-phosphorylation-regulated kinase 1A (Homo sapiens, UniProt Q13627)
Measurement Notes: Inhibition of recombinant DYRK1A (unknown origin) using Ser/Thr 18 peptide as substrate incubated for 1 hr in presence of ATP by FRET assay
Readout: EC50 (nM)

Examples with answers:
1. Cc1ncc(-c2cnc3[nH]nc(-c4cc5c(-c6ccncc6)cncc5[nH]4)c3c2)n1C    28
2. COc1cncc(-c2ccc3[nH]nc(-c4nc5c(-c6cccc(F)c6)ccnc5[nH]4)c3n2)c1    51
3. Fc1cccc(-c2cncc3[nH]c(-c4n[nH]c5cnc(-c6cncc(OC7CCNCC7)c6)cc45)nc23)c1    5
4. CC(C)CC(=O)Nc1cncc(-c2ccc3[nH]nc(-c4cc5c(-c6ccncc6)nccc5[nH]4)c3c2)c1    25
5. c1cc(-c2cncc3[nH]c(-c4n[nH]c5ccc(-c6cncc(CNCC7CCCC7)c6)cc45)nc23)cs1    12

(1) CCCC(=O)Nc1cncc(-c2ccc3[nH]nc(-c4nc5c(-c6ccncc6)cncc5[nH]4)c3n2)c1
(2) FC1(F)CCN(Cc2cncc(-c3ccc4[nH]nc(-c5cc6cnccc6[nH]5)c4n3)c2)C1
(3) CCNCc1cncc(-c2cc3c(-c4cc5c(-c6cccnc6)cncc5[nH]4)n[nH]c3cn2)c1
IN: Put the items in order so that reported EC50 rises from first to last. Give me the labels in the order the question wants.
OUT: 3, 2, 1
